# EC50 listing for each entry below
- targetOfAssay: Melanocyte-stimulating hormone receptor (Homo sapiens, UniProt Q01726)
- assayNotes: Activity against hMC1R transfected in HEK293 cells by intracellular cAMP accumulation

# EC50 of `CCCC[C@@H]1NC(=O)CC[C@@H](C(N)=O)NC(=O)[C@H](Cc2c[nH]c3ccccc23)NC(=O)[C@H](CCCN=C(N)N)NC(=O)[C@@H](Cc2ccc3ccccc3c2)NC(=O)[C@H](CC(=O)O)NC1=O` = > 10 µM

----------
# %max listing for each entry below
- targetOfAssay: Melanocyte-stimulating hormone receptor (Homo sapiens, UniProt Q01726)
- assayNotes: Activity against hMC1R transfected in HEK293 cells by intracellular cAMP accumulation
- Assay type: functional, cell-based
Just the number in %, nothing appended.

Entry `CCCC[C@@H]1NC(=O)CC[C@@H](C(N)=O)NC(=O)[C@H](Cc2c[nH]c3ccccc23)NC(=O)[C@H](CCCN=C(N)N)NC(=O)[C@@H](Cc2ccccc2)NC(=O)[C@H](C(C)C)NC1=O` , tested on Melanocyte-stimulating hormone receptor (Homo sapiens, UniProt Q01726), has a reported %max of 0

Entry `CCCC[C@@H]1NC(=O)CC[C@@H](C(N)=O)NC(=O)[C@H](Cc2c[nH]c3ccccc23)NC(=O)[C@H](CCCN=C(N)N)NC(=O)[C@@H](Cc2ccc3ccccc3c2)NC(=O)[C@H](Cc2c[nH]cn2)NC1=O` , tested on Melanocyte-stimulating hormone receptor (Homo sapiens, UniProt Q01726), has a reported %max of 0

Cited source: ChEMBL document CHEMBL1138987
